B1: KLHL12 (parent)
chain: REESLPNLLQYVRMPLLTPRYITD

# Variants of: B1
# ASSAY_DETAILS: protein stability index of a GFP-peptide fusion (GPS, HEK-293T) (PSI 1-6); higher = more stable;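 further: lentivirally expressed fusions sorted by FACS into six bins by GFP to DsRed ratio, PSI derived from sequencing read proportions per bin multiplied by bin number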
# SETTINGS: c terminus: a fixed tail appended
# protein stability index values compiled below
Returns: the value as a bare number; no unit string appended.

L9F :: 2.27

Assign protein stability index to the following record: Q10F
2.22

Assign protein stability index to the following record: E3P
2.19

Assign protein stability index to the following record: R20A
2.19

Assign protein stability index to the following record: I22M
1.94

Assign protein stability index to the following record: E2T
3.35
